IC50 at 5 days overview
Assay: MTT cytotoxicity assay, MDBK
Format: cell-based, bovine
Details: bovine, MDBK cells; MTT, 5 days; read-out: Cell Toxicity IC50 ± SE MDBK
Please reply with the bare figure in µM and do not write the unit itself.

1) COc1ccc2nc(C)cc(N/N=C/c3ccc([N+](=O)[O-])cc3)c2c1 [Compound 7]; 6.68

Entry COc1ccc2nc(C)cc(N/N=C/c3c[nH]cn3)c2c1 [Compound 6] needs its IC50 at 5 days filled in; supply it. 11.7

Return reported IC50 at 5 days. Input molecule: COc1ccc2nc(C)cc(N/N=C/c3cccc(O)c3)c2c1 [Compound 10] 9.71

Specify measured IC50 at 5 days for COc1ccc2nc(-c3ccccc3)cc(N/N=C/c3ccc([N+](=O)[O-])cc3)c2c1 [Compound 14] . 4.24

Report IC50 at 5 days, nothing else, for this molecule: COc1ccc2nc(C)cc(N/N=C/c3cccnc3)c2c1 [Compound 3] 7.34

Identify measured IC50 at 5 days associated with COc1ccc2nc(C)cc(N/N=C/c3ccc(O)cc3)c2c1 [Compound 8] 3.73

Note IC50 at 5 days for the molecule shown: COc1ccc2nc(C)cc(N/N=C/c3ccc(F)cc3)c2c1 [Compound 1] 3.77

###

Test: MTT cytotoxicity assay, HepG2
Format: cell-based, Human
Details: human, HepG2 cells; MTT, 5 days; read-out: Cell Toxicity IC50 ± SE HepG2
Listing: IC50 at 5 days of selected compounds
Number in nM, nothing else.

Study these solved cases before continuing.
1) COc1ccc2nc(C)cc(NN=Cc3ccccc3)c2c1; 1900
2) COc1ccc2nc(-c3ccccc3)cc(N/N=C/c3ccc(N(C)C)cc3)c2c1; 4150
3) COc1ccc2nc(-c3ccccc3)cc(N/N=C/c3c[nH]cn3)c2c1; 2210
4) COc1ccc2nc(C)cc(N/N=C/c3ccc(F)cc3)c2c1; 872
5) COc1ccc2nc(-c3ccccc3)cc(N/N=C/c3ccc([N+](=O)[O-])cc3)c2c1; 890

Respond only with IC50 at 5 days recorded for COc1ccc2nc(C)cc(N/N=C/c3c[nH]cn3)c2c1 7260

Provide measured IC50 at 5 days value, entry: COc1ccc2nc(C)cc(N/N=C/c3cccc(O)c3)c2c1 2640

Please supply the value of reported IC50 at 5 days for the item COc1ccc2nc(C)cc(N/N=C/c3cccnc3)c2c1 3000

Fill in IC50 at 5 days for record COc1ccc2nc(C)cc(N/N=C/c3ccc([N+](=O)[O-])cc3)c2c1 1690

###

Tested on: P. falciparum K1 strain
Assay: P. falciparum K1 dose-response, 72 h, SYBR Green-based plate reader assay
Type: cell-based
Details: Plasmodium falciparum, ring stage, 72 h incubation, read-out: Plasmodium IC50 ± SE
Recorded Metric: IC50 (nM)
Please reply with the bare figure in nM and do not write the unit itself.

Solved entries (count: 5):
1. COc1ccc2nc(C)cc(N/N=C/c3cccnc3)c2c1 [Compound 3]; 175
2. COc1ccc2nc(C)cc(N/N=C/c3ccc(F)cc3)c2c1 [Compound 1]; 25.7
3. COc1ccc2nc(C)cc(N/N=C/c3cccc(OC)c3O)c2c1 [Compound 5]; 174
4. COc1ccc2nc(-c3ccccc3)cc(N/N=C/c3cccc(OC)c3O)c2c1 [Compound 12]; 133
5. COc1ccc2nc(C)cc(NN=Cc3ccccc3)c2c1 [Compound 2]; 32.9

Answer with reported IC50 of COc1ccc2nc(-c3ccccc3)cc(N/N=C/c3ccc([N+](=O)[O-])cc3)c2c1 [Compound 14] 176
